System: EKVX NSCLC
Experiment: NCI tumour cell line growth inhibition, 48 h
assay_metric: TGI

Some molecules with known TGI results, for comparison:
- molecule: "O=C(O)C1CCC(=O)N1C(=O)C(Cl)c1ccccc1 (stereo unspecified)"
  target_entity: "EKVX NSCLC"
  TGI: "> 100 µM"
- molecule: "CCN(CC)CC1CCCCN1CC(=O)N1c2ccccc2NC(=O)c2ccccc21 (stereo unspecified)"
  target_entity: "EKVX NSCLC"
  TGI: "> 100 µM"
- molecule: "O=C(OCCO)C1CC2CC1C1(C2)OCCO1 (stereo unspecified)"
  target_entity: "EKVX NSCLC"
  TGI: "> 100 µM"

Measured TGI of COc1cc(COC(=O)N2CSCC2C(=O)O)c([N+](=O)[O-])cc1OC (stereo unspecified) : > 100 µM

Item: COc1ccc(C2=C(c3cn(C)c4ccccc34)C(=O)OC2)cc1OC | TGI: > 100 µM

Just so you know, measured TGI for CCOC(=O)C(Br)(C(N)=O)C1(O)OC(c2ccccc2)=C(Br)C1=O (stereo unspecified) came out at 46.8 µM

----------
Measured TGI values are reported for all entries that follow.
Tested on: SK-MEL-28 melanoma
Assay: NCI tumour cell line growth inhibition, 48 h

- molecule: "C[C@@H](CO)C1=C(O)c2ccc3c(c2C(=O)C1=O)CCCC3(C)C"
  TGI: "> 100 µM"
- molecule: "CC(C)(Br)C(Br)CCC1(C(Br)CBr)CO1 (stereo not given)"
  TGI: "> 10 µM"
- molecule: "COC(=O)Cc1c(-c2[nH]c3ccccc3c2CC(=O)OC)[nH]c2ccccc12"
  TGI: "> 100 µM"
- molecule: "CC1=C(Cc2ccccc2)C(Cc2ccccc2)=C(C)S1=O"
  TGI: "> 100 µM"

Entry CN1C[C@@H](c2ccc(Cl)cc2)[C@]2(NC(=S)N(c3ccc(F)c(Cl)c3)C2=O)[C@@]12C(=O)NC1C=CC(Cl)=C[C@H]12 (stereo not given in full) — recorded TGI = 12.9 µM

----------
Test system: UO-31 renal
Assay: NCI tumour cell line growth inhibition, 48 h; in the data active means GI50 below about 0.43 µM; inactive means the rest
Mark one answer only. Choices: active, inactive

Take a look at these entries with their results.
- compound: "CC(=O)Nc1c(Br)cc2c(c1Br)Cc1cc(Br)ccc1-2"
  cat: "inactive"
- compound: "CC(C)OP(=O)(OC(C)C)c1ncc(-c2ccc(C(F)(F)F)cc2)c(NC2CCCCCC2)n1"
  cat: "inactive"
- compound: "O=C1CCC/C=C\\C[C@H]2C=CC(=O)/C2=C/C[C@H](CCc2cccc(C(F)(F)F)c2)O1"
  cat: "inactive"
- compound: "C/C=C/C1=CN2C(=O)c3cc(OC4OC(C)C(NC)C(C)(O)C4O)c(C)cc3N=C[C@@H]2C1 (some centres undefined)"
  cat: "active"
- compound: "O=C1CCc2c(Oc3ccc4c(c3)[C@H]3[C@@H](O4)[C@@H]3c3nc4ccc(C(F)(F)F)cc4[nH]3)ccnc2N1"
  cat: "inactive"
- compound: "C=C1C(=O)O[C@@H]2[C@@H]3O[C@@H](C[C@@H]13)[C@](C)(O)CC/C=C(\\C)CCC[C@H]2C"
  cat: "inactive"

### Prompt Called result for COc1ccc(/C=C/C(=O)c2ccc(Cl)cc2Cl)cc1
### Response inactive

### Prompt For CCCC(=O)OCC1OC(n2cnc3c(=S)nc(N)[nH]c32)C(OC(=O)CCC)C1OC(=O)CCC (centres undefined) , what call appears in the results of this test?
### Response inactive

### Prompt Record request — test call for CCOC(=O)CCC(NC(=O)c1ccc(Sc2nc3cc(N)cc(N)c3nc2-c2ccccc2)cc1)C(=O)OCC (centres undefined)
### Response inactive
